- Test protocol: Hygroscopicity experiment (DVS)
- Type: physicochemical
- Particulars: Cycle 2, target relative humidity 50.0%, 25° C.
Assay metric: % percentage of mass change, Desorption (%)
Give bare numbers, in %.

These solved cases illustrate the format of a correct answer.
CS(=O)(=O)O.N#Cc1cc2n(CC(=O)Nc3ccc(F)cn3)c(=O)c3ccc(C(F)(F)F)nc3n2n1 [Methanesulfonate (crystal form A)]; 0.241
N#Cc1cc2n(CC(=O)Nc3ccc(F)cn3)c(=O)c3ccc(C(F)(F)F)nc3n2n1.O=S(=O)(O)O [Sulfate (crystal form B)]; 0.422
CCS(=O)(=O)O.N#Cc1cc2n(CC(=O)Nc3ccc(F)cn3)c(=O)c3ccc(C(F)(F)F)nc3n2n1 [Ethanesulfonate (crystal form A)]; 0.250

Now consider a different compound.
Field request: % percentage of mass change, Desorption | item: Cl.N#Cc1cc2n(CC(=O)Nc3ccc(F)cn3)c(=O)c3ccc(C(F)(F)F)nc3n2n1 [Hydrochloride (crystal form A)]
7.649
